The origin of these recorded values is the RNAGym collection of RNA variant scans (doi:10.7554/elife.80360).

Items are presented alongside their recorded self-cleavage.
B1: HDV Ribozyme (parent)
chain: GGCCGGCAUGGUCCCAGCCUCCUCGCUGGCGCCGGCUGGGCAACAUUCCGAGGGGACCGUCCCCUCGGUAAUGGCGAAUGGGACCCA

# Variants of: B1
# assay-protocol: self-cleavage, relative activity (ratio to wild type); higher = more cleavage; co-transcriptional
assay-readout: self-cleavage

>  <sequence-input>
GGCCGGCAUGGUCCCAACCUCCUCGCUGGCGCCGGCUGGGCAACAUCCCGAGGGGACCGUCCCCUCGGUAAUGGCGAAUGGGACCCA [G17A U47C]

>  <observed-result>
0.587

$$$$
>  <sequence-input>
GGCCGGCAUGGUCCCAGCUUCCUCGCUGGCGUCGGCUGGGCAACAUUCCGAGGGGACCGUCCCCUCGGUAAUGGCGAAUGGGACCCA [C19U C32U]

>  <observed-result>
0.295

$$$$
>  <sequence-input>
GGCCGGCAUGGUCCCAGCCUCCUCGCUGGCGCCGGCUGGGCAACAUUCCGAGGGGACCGUCCCCUCGGUAAUGGCGAAUGGGACCCU [A87U]

>  <observed-result>
1.03

$$$$
>  <sequence-input>
GGCCGGCAUGGUCCCAACUUCCUCGCUGGCGCCGGCUGGGCAACAUUCCGAGGGGACCGUCCCCUCGGUAAUGGCGAAUGGGACCCA [G17A C19U]

>  <observed-result>
0.119

$$$$
>  <sequence-input>
GGCCGGCAUGGUCCCAGCCUCCUCGUUGGCGCCGGCUGGGCAACAUUCCGAGGGGACCGUCCCCUCGGUAAUGGCGAACGGGACCCA [C26U U79C]

>  <observed-result>
0.671

$$$$
>  <sequence-input>
GGCCGGCACGGUCCCAGCCUCCUCGCUGGCGCCGGCUGGGCAACAUUCCGAGGGGACCGUCCCCUCGGUAAUGGCGAAGGGGACCCA [U9C U79G]

>  <observed-result>
0.519

$$$$
>  <sequence-input>
GGCCGGCAUGGUGCCAGCCUCCUCGCUGGCGUCGGCUGGGCAACAUUCCGAGGGGACCGUCCCCUCGGUAAUGGCGAAUGGGACCCA [C13G C32U]

>  <observed-result>
0.0437

$$$$
>  <sequence-input>
GGCCGGCAUGAUCCCAGCCUCCUCGCUGGCGCCGGCUGGGCAACAUUCCGAGGGGACCGGCCCCUCGGUAAUGGCGAAUGGGACCCA [G11A U60G]

>  <observed-result>
0.399

$$$$
>  <sequence-input>
GGCCGGCAUGGUCCCAGCCUCCGCGCUGGCGCCGGCUGGGCAACAUUCCGUGGGGACCGUCCCCUCGGUAAUGGCGAAUGGGACCCA [U23G A51U]

>  <observed-result>
0.705

$$$$
>  <sequence-input>
GGCCGGCAUGGUCCCAGCCUCCUCGCUGGCGCCGGCUGGGCAACAUUCCGAGGGGACCGUCCCCUCGGAAAUGGCGAAUGGGAUCCA [U69A C84U]

>  <observed-result>
0.639

$$$$
>  <sequence-input>
GGCCGGCACGGUCCCAGCCUCCUCGCUGGCGCCGGCUGGGCAACAUUCCGAGGGGACCGUCCCUUCGGUAAUGGCGAAUGGGACCCA [U9C C64U]

>  <observed-result>
0.923

$$$$
>  <sequence-input>
GGCCGGCAUGGUCCCAGCCUCCUCGCUGGCGCCCGCUGGGCAACAUUCCGGGGGGACCGUCCCCUCGGUAAUGGCGAAUGGGACCCA [G34C A51G]

>  <observed-result>
0.346

$$$$
>  <sequence-input>
GGCCGGCAUGGUCCCAGCCUCCUCGCUGGCGCCGGCUGGCCAACAUUCCGAGGGGACCGUCCCCUCGGUAAUGGCGAAAGGGACCCA [G40C U79A]

>  <observed-result>
0.19

$$$$
>  <sequence-input>
GGCCGGCAUGGUCCCAGCCUCCUCGCUGGCGCCGGCCGGGCAACAUUCCGAGGGGACCGUCCCCUCGGUAAUGGAGAAUGGGACCCA [U37C C75A]

>  <observed-result>
0.177

$$$$
>  <sequence-input>
GGCCGGCAUGGUCCCAGCCUCCUCGUUGGCGCCGGCUGGGCAACAUUCCGAGGGGACCGUCCCCUCGGUAAUGGCGAAUGCGACCCA [C26U G81C]

>  <observed-result>
0.748

$$$$
>  <sequence-input>
GGCCGGCACGGUCCCAGCCUCCUCGCUGGCGCCGGCUGGGCAACAUUCAGAGGGGACCGUCCCCUCGGUAAUGGCGAAUGGGACCCA [U9C C49A]

>  <observed-result>
0.703

$$$$
>  <sequence-input>
GGCCGGCAUGGUCCGAGCCUCCUCGCUGGCGCCGGCUGGGCAACAUUCCGAGGGGACCGUCCCCUAGGUAAUGGCGAAUGGGACCCA [C15G C66A]

>  <observed-result>
0.665

$$$$
>  <sequence-input>
GGCCGGCAUGGUCCCAGCCUCCUCGCUGGCGCCGGCUGGGCAACAUUCCGACGGGACCGUCCCCUCGGUAAUGGCGAAUUGGACCCA [G52C G80U]

>  <observed-result>
0.299

$$$$
>  <sequence-input>
GGCCGGCAUGGUCCCAGCCUCCUCGCUGGCGCCGGCUGGGCAACAUUCCGAGGGGACCGUCCCCUCGGUAAUCGCGAAUGGGACCAA [G73C C86A]

>  <observed-result>
0.641

$$$$
>  <sequence-input>
GGCCGGUAUGGUCCCAGCCUCCUCGCUGGCGCCGGCUGGGCAACAUUCCGAGGGGACCGUCCCCUCGGUAAUGGCGGAUGGGACCCA [C7U A77G]

>  <observed-result>
0.434

$$$$
>  <sequence-input>
GGCCCGCAUGGUCCCAGCCUCCUCGCUGGCGCCGGCUGGGCAACAUUCCGAGGGGACCGUCCCCUCGGUAAUGGCGAAUAGGACCCA [G5C G80A]

>  <observed-result>
0.256

$$$$
>  <sequence-input>
GGCCGGCAUGGUCCCAGCCUCCGCGCUGGCGCCGGCUGGGCAACAUUCCGAGGGUACCGUCCCCUCGGUAAUGGCGAAUGGGACCCA [U23G G55U]

>  <observed-result>
0.502

$$$$
